Target sequence: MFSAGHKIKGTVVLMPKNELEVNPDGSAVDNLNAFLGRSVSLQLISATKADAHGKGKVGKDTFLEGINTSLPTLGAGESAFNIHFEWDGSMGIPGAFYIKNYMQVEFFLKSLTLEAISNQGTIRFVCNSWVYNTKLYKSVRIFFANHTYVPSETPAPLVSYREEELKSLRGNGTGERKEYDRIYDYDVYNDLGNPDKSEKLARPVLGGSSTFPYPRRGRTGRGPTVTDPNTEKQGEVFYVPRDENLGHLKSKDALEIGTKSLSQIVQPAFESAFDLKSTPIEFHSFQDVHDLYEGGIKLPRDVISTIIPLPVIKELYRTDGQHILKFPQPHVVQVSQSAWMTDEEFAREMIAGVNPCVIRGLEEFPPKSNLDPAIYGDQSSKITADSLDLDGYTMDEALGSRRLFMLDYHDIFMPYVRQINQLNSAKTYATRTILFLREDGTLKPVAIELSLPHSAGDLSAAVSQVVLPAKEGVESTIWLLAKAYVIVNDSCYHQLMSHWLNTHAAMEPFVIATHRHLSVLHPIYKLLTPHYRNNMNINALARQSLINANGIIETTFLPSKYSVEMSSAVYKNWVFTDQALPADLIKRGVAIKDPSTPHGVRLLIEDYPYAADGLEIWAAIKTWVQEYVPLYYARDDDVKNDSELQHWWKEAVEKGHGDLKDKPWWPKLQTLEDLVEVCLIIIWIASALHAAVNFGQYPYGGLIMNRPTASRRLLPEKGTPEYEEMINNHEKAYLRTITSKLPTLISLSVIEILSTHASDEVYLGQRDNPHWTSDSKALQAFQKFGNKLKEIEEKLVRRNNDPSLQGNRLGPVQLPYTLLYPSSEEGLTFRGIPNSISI
The reader will find reported pIC50 values listed item by item below.
By convention, pIC50 is the negative base-10 log of a molar concentration.

>>> experimental_result("C[C@H](Cc1cc(O)c(O)cc1Cl)[C@@H](C)Cc1cc(O)c(O)cc1Cl")
7.19
>>> experimental_result("COc1cc(C[C@@H](C)[C@@H](C)Cc2ccc(O)c(O)c2)ccc1O")
6.77

Now consider a different compound.
# compound CCc1cc(O)c(O)cc1C[C@@H](C)[C@@H](C)Cc1cc(O)c(O)cc1CC ; its pIC50 = 6.85

###

Biological target: Polyunsaturated fatty acid lipoxygenase ALOX12 (Homo sapiens, UniProt P18054)
Sequence (P18054 whole entry): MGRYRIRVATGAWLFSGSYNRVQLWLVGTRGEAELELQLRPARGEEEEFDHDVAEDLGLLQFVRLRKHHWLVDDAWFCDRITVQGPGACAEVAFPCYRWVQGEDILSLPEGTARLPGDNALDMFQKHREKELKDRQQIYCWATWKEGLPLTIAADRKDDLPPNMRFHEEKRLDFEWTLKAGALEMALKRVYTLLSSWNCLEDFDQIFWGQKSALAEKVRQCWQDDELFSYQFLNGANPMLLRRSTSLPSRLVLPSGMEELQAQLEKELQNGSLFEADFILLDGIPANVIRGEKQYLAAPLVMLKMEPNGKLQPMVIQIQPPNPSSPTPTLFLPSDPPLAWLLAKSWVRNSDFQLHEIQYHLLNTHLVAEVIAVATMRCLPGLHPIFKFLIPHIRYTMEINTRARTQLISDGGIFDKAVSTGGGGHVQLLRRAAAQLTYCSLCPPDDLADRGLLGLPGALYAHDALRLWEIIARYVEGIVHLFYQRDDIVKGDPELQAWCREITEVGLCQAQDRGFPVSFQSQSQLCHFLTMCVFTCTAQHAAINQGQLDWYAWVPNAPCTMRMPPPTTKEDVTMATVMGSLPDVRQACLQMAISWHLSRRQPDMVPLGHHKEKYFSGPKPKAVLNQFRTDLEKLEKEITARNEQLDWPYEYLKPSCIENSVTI
QUANTITY KIND: pIC50
By convention, pIC50 is the negative base-10 log of a molar concentration.

>>> experimental_result("C[C@H](Cc1ccc(O)c(O)c1)[C@@H](C)Cc1ccc2c(c1)OC(C)(C)O2")
5.66
>>> experimental_result("COc1cc(C[C@@H](C)[C@@H](C)Cc2ccc(O)c(O)c2)ccc1O")
4.85
>>> experimental_result("C[C@H](Cc1cc(O)c(O)cc1[N+](=O)[O-])[C@@H](C)Cc1cc(O)c(O)cc1[N+](=O)[O-]")
6.44
>>> experimental_result("CC(=O)c1cc(O)c(O)cc1C[C@@H](C)[C@@H](C)Cc1cc(O)c(O)cc1C(C)=O")
4.59

Now consider a different compound.
# compound C[C@H](Cc1cc(O)c(O)cc1Cl)[C@@H](C)Cc1cc(O)c(O)cc1Cl ; its pIC50 = 6.44

Value source: ChEMBL document CHEMBL1135472
